Provide the reported log2 ratio of Biotin-Ahx-Ub-VS probe labelling of each item.
Target: YOD1 (UniProt Q5VVQ6)
Sequence (whole entry): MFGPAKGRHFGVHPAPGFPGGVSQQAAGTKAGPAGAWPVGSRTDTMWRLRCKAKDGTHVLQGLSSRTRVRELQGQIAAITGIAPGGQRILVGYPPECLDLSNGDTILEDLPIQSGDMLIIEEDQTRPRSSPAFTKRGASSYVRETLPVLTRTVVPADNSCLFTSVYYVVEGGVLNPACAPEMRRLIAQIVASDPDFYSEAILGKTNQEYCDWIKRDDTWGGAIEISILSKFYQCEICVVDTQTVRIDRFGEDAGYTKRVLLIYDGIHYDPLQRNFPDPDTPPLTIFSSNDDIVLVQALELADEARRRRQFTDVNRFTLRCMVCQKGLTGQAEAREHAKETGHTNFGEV
Assay: log2 ratio of Biotin-Ahx-Ub-VS probe labelling (fragment/DMSO); higher = less target engagement (more negative = stronger competition), active = hit call of the paper (q ≤ 0.05, log2 ratio ≤ -1)
Conditions: compound concentration: 200 uM; treatment time: 3 h
Number only, please.

Q) For the compound CC(NC(=O)CCl)c1ccc2[nH]ncc2c1 (configuration not stated) , what log2 ratio of Biotin-Ahx-Ub-VS probe labelling is on record?
A) -0.629

Q) For the compound O=C(CCl)N1CCOC(c2cccc(F)c2)C1 (configuration not stated) , what log2 ratio of Biotin-Ahx-Ub-VS probe labelling is on record?
A) -0.0782

Q) For the compound O=C(CCl)N[C@H]1CC[C@@H](CO)CC1 , what log2 ratio of Biotin-Ahx-Ub-VS probe labelling is on record?
A) -0.784

Q) For the compound Cc1nc(CN2CCN(C(=O)CCl)CC2)cs1 , what log2 ratio of Biotin-Ahx-Ub-VS probe labelling is on record?
A) -0.111

Q) For the compound Cc1cc(NC(=O)CCl)n(-c2ccccc2)n1 , what log2 ratio of Biotin-Ahx-Ub-VS probe labelling is on record?
A) 0.179

Q) For the compound CC(NC(=O)CCl)c1cnn(C2CC2)c1 (configuration not stated) , what log2 ratio of Biotin-Ahx-Ub-VS probe labelling is on record?
A) -0.732

Q) For the compound Cc1ccc(N(CCC#N)C(=O)CCl)cc1C , what log2 ratio of Biotin-Ahx-Ub-VS probe labelling is on record?
A) 0.0402

* * *

target: OTUD4 (UniProt Q01804); assay: log2 ratio of Biotin-Ahx-Ub-VS probe labelling (fragment/DMSO); higher = less target engagement (more negative = stronger competition), active = hit call of the paper (q ≤ 0.05, log2 ratio ≤ -1); details: compound concentration: 200 uM; treatment time: 3 h
Sequence (Q01804 whole entry, the tested form may be a part): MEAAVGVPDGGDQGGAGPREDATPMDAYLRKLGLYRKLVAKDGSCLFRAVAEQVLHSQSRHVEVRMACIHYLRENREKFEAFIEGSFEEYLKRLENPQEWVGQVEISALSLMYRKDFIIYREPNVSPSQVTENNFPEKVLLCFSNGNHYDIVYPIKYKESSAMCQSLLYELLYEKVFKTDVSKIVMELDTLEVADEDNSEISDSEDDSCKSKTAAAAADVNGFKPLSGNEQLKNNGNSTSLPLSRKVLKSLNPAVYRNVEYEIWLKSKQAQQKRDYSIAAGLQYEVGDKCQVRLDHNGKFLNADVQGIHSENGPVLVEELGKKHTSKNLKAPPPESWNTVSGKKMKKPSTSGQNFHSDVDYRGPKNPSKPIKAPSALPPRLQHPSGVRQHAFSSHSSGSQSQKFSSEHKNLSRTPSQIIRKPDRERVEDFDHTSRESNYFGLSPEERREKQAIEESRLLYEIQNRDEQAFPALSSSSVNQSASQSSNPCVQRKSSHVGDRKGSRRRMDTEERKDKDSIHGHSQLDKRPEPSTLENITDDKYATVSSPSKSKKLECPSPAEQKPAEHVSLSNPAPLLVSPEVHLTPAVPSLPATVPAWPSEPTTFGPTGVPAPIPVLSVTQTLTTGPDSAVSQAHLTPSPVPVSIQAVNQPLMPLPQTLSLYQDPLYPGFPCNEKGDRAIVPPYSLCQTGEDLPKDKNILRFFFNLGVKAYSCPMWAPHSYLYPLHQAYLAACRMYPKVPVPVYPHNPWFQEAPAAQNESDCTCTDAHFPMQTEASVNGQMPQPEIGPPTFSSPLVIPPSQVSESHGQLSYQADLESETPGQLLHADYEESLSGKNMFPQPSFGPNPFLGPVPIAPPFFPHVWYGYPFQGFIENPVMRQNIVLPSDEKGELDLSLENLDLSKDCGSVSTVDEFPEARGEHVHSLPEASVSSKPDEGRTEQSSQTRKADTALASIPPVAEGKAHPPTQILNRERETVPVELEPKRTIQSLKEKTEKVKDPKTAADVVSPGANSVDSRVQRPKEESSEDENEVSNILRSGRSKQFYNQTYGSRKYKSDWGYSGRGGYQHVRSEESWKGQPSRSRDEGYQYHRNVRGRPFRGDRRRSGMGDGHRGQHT
VALUE_TYPE: log2 ratio of Biotin-Ahx-Ub-VS probe labelling
Number only, please.

Q) GET /values?readout=log2 ratio of Biotin-Ahx-Ub-VS probe labelling&system=OTUD4 (UniProt Q01804)&item= Cc1cccc(N(CCC#N)C(=O)CCl)c1C
A) -1.76

Q) GET /values?readout=log2 ratio of Biotin-Ahx-Ub-VS probe labelling&system=OTUD4 (UniProt Q01804)&item= Cl.O=C(CCl)NC1(c2ncccn2)CCC1
A) -0.17

Q) GET /values?readout=log2 ratio of Biotin-Ahx-Ub-VS probe labelling&system=OTUD4 (UniProt Q01804)&item= Cl.O=C(CCl)N1CCC(Cc2nccs2)C1 (stereo not drawn)
A) -0.386

Q) GET /values?readout=log2 ratio of Biotin-Ahx-Ub-VS probe labelling&system=OTUD4 (UniProt Q01804)&item= Cc1noc(C)c1CNC(=O)CCl
A) -0.737

Q) GET /values?readout=log2 ratio of Biotin-Ahx-Ub-VS probe labelling&system=OTUD4 (UniProt Q01804)&item= Cc1ccccc1C1(CNC(=O)CCl)CCOCC1
A) -0.322

Q) GET /values?readout=log2 ratio of Biotin-Ahx-Ub-VS probe labelling&system=OTUD4 (UniProt Q01804)&item= CC(NC(=O)CCl)c1noc(Cc2ccccc2)n1 (stereo not drawn)
A) -0.692

Q) GET /values?readout=log2 ratio of Biotin-Ahx-Ub-VS probe labelling&system=OTUD4 (UniProt Q01804)&item= O=C(CCl)N(Cc1ccsc1)C1CC1
A) -0.285

Q) GET /values?readout=log2 ratio of Biotin-Ahx-Ub-VS probe labelling&system=OTUD4 (UniProt Q01804)&item= O=C(CCl)NCc1cccc(N2CCCC2=O)c1
A) -0.18

Q) GET /values?readout=log2 ratio of Biotin-Ahx-Ub-VS probe labelling&system=OTUD4 (UniProt Q01804)&item= Cc1ccc(CC(NC(=O)CCl)c2ccccn2)cc1.Cl (stereo not drawn)
A) 0.0988

Q) GET /values?readout=log2 ratio of Biotin-Ahx-Ub-VS probe labelling&system=OTUD4 (UniProt Q01804)&item= CC(NC(=O)CCl)c1cccc2ccccc12 (stereo not drawn)
A) -1.01

Q) GET /values?readout=log2 ratio of Biotin-Ahx-Ub-VS probe labelling&system=OTUD4 (UniProt Q01804)&item= O=C(CCl)Nc1cc2c(cc1Cl)OCCO2
A) -0.327

Q) GET /values?readout=log2 ratio of Biotin-Ahx-Ub-VS probe labelling&system=OTUD4 (UniProt Q01804)&item= O=C(CCl)Nc1ccc(F)cc1Cl
A) -0.578

Q) GET /values?readout=log2 ratio of Biotin-Ahx-Ub-VS probe labelling&system=OTUD4 (UniProt Q01804)&item= NC(=O)C1CCCCN1C(=O)CCl (stereo not drawn)
A) -0.464

Q) GET /values?readout=log2 ratio of Biotin-Ahx-Ub-VS probe labelling&system=OTUD4 (UniProt Q01804)&item= Cc1noc(N2CCN(C(=O)CCl)CC2)n1.Cl
A) -0.163

Q) GET /values?readout=log2 ratio of Biotin-Ahx-Ub-VS probe labelling&system=OTUD4 (UniProt Q01804)&item= CC1(NC(=O)CCl)CCS(=O)(=O)C1 (stereo not drawn)
A) -0.934

Q) GET /values?readout=log2 ratio of Biotin-Ahx-Ub-VS probe labelling&system=OTUD4 (UniProt Q01804)&item= O=C(CCl)NC1CCCCNC1=O (stereo not drawn)
A) -0.342

Q) GET /values?readout=log2 ratio of Biotin-Ahx-Ub-VS probe labelling&system=OTUD4 (UniProt Q01804)&item= O=C(CCl)Nc1ccc(F)cc1F
A) -0.268

Q) GET /values?readout=log2 ratio of Biotin-Ahx-Ub-VS probe labelling&system=OTUD4 (UniProt Q01804)&item= CC(NC(=O)CCl)c1cnn(C2CC2)c1 (stereo not drawn)
A) -0.268

Q) GET /values?readout=log2 ratio of Biotin-Ahx-Ub-VS probe labelling&system=OTUD4 (UniProt Q01804)&item= O=C(CCl)NCc1ccc(N2CCOCC2)nc1
A) -0.539

Q) GET /values?readout=log2 ratio of Biotin-Ahx-Ub-VS probe labelling&system=OTUD4 (UniProt Q01804)&item= CCC1c2ccsc2CCN1C(=O)CCl (stereo not drawn)
A) -0.658

Q) GET /values?readout=log2 ratio of Biotin-Ahx-Ub-VS probe labelling&system=OTUD4 (UniProt Q01804)&item= CC(NC(=O)CCl)c1ccc2[nH]ncc2c1 (stereo not drawn)
A) -0.637

Q) GET /values?readout=log2 ratio of Biotin-Ahx-Ub-VS probe labelling&system=OTUD4 (UniProt Q01804)&item= O=C(CCl)Nc1ccc(N2CCCC2=O)cc1
A) 0.0281

Q) GET /values?readout=log2 ratio of Biotin-Ahx-Ub-VS probe labelling&system=OTUD4 (UniProt Q01804)&item= C[C@H]1CN(C(=O)CCl)CCN1C(=O)c1cnn(C)c1.Cl
A) -0.236

Q) GET /values?readout=log2 ratio of Biotin-Ahx-Ub-VS probe labelling&system=OTUD4 (UniProt Q01804)&item= Cl.Cn1nc2c(c1CNC(=O)CCl)CCCC2
A) -0.319

Q) GET /values?readout=log2 ratio of Biotin-Ahx-Ub-VS probe labelling&system=OTUD4 (UniProt Q01804)&item= COc1ccccc1C(C)NC(=O)CCl (stereo not drawn)
A) -0.393

Q) GET /values?readout=log2 ratio of Biotin-Ahx-Ub-VS probe labelling&system=OTUD4 (UniProt Q01804)&item= Cl.O=C(CCl)N1CCn2cncc2C1
A) 0.0549

Q) GET /values?readout=log2 ratio of Biotin-Ahx-Ub-VS probe labelling&system=OTUD4 (UniProt Q01804)&item= CN(C)C(=O)c1ccc(CNC(=O)CCl)cc1
A) -0.365

Q) GET /values?readout=log2 ratio of Biotin-Ahx-Ub-VS probe labelling&system=OTUD4 (UniProt Q01804)&item= O=C(CCl)Nc1cc(Cl)ccc1C(=O)O
A) 0.038

Q) GET /values?readout=log2 ratio of Biotin-Ahx-Ub-VS probe labelling&system=OTUD4 (UniProt Q01804)&item= CC1Cc2ccccc2N1C(=O)CCl (stereo not drawn)
A) -0.544

Q) GET /values?readout=log2 ratio of Biotin-Ahx-Ub-VS probe labelling&system=OTUD4 (UniProt Q01804)&item= O=C(CCl)NC1CCN(C(=O)C2CCCCC2)CC1
A) 0.0192

Q) GET /values?readout=log2 ratio of Biotin-Ahx-Ub-VS probe labelling&system=OTUD4 (UniProt Q01804)&item= O=C(CCl)N[C@H]1CC[C@@H](CO)CC1
A) -0.852

Q) GET /values?readout=log2 ratio of Biotin-Ahx-Ub-VS probe labelling&system=OTUD4 (UniProt Q01804)&item= O=C(CCl)N[C@H]1CCS(=O)(=O)c2ccccc21
A) -1.08

Q) GET /values?readout=log2 ratio of Biotin-Ahx-Ub-VS probe labelling&system=OTUD4 (UniProt Q01804)&item= Cl.Cn1ncc2c1CC(NC(=O)CCl)CC2 (stereo not drawn)
A) -0.464

Q) GET /values?readout=log2 ratio of Biotin-Ahx-Ub-VS probe labelling&system=OTUD4 (UniProt Q01804)&item= Cc1ccc(C(=O)NCCNC(=O)CCl)cc1
A) -0.371

Q) GET /values?readout=log2 ratio of Biotin-Ahx-Ub-VS probe labelling&system=OTUD4 (UniProt Q01804)&item= Cc1cccc(C)c1NC(=O)CCl
A) -0.228

Q) GET /values?readout=log2 ratio of Biotin-Ahx-Ub-VS probe labelling&system=OTUD4 (UniProt Q01804)&item= Cc1ccccc1OCC(=O)N1CCN(C(=O)CCl)CC1
A) 0.0744

Q) GET /values?readout=log2 ratio of Biotin-Ahx-Ub-VS probe labelling&system=OTUD4 (UniProt Q01804)&item= Cc1conc1C1CN(C(=O)CCl)C1
A) -0.837

Q) GET /values?readout=log2 ratio of Biotin-Ahx-Ub-VS probe labelling&system=OTUD4 (UniProt Q01804)&item= CS(=O)(=O)c1ccc(CNC(=O)CCl)cc1
A) -0.317

Q) GET /values?readout=log2 ratio of Biotin-Ahx-Ub-VS probe labelling&system=OTUD4 (UniProt Q01804)&item= COCC1C=CCCN1C(=O)CCl (stereo not drawn)
A) -0.452

Q) GET /values?readout=log2 ratio of Biotin-Ahx-Ub-VS probe labelling&system=OTUD4 (UniProt Q01804)&item= O=C(CCl)NCc1noc(C2CC2)n1
A) -0.405

Q) GET /values?readout=log2 ratio of Biotin-Ahx-Ub-VS probe labelling&system=OTUD4 (UniProt Q01804)&item= CC(O)CC1CCN(C(=O)CCl)CC1 (stereo not drawn)
A) 0.0747

Q) GET /values?readout=log2 ratio of Biotin-Ahx-Ub-VS probe labelling&system=OTUD4 (UniProt Q01804)&item= O=C(CCl)N1CCC(OCc2ccccc2F)CC1
A) -0.169

Q) GET /values?readout=log2 ratio of Biotin-Ahx-Ub-VS probe labelling&system=OTUD4 (UniProt Q01804)&item= Cc1ccc(N(CCC#N)C(=O)CCl)cc1C
A) -1.93

Q) GET /values?readout=log2 ratio of Biotin-Ahx-Ub-VS probe labelling&system=OTUD4 (UniProt Q01804)&item= Cc1nnc(C(NC(=O)CCl)c2ccccc2)n1C (stereo not drawn)
A) 0.483

Q) GET /values?readout=log2 ratio of Biotin-Ahx-Ub-VS probe labelling&system=OTUD4 (UniProt Q01804)&item= Cc1cccn2cc(CCNC(=O)CCl)nc12.Cl
A) 0.123

Q) GET /values?readout=log2 ratio of Biotin-Ahx-Ub-VS probe labelling&system=OTUD4 (UniProt Q01804)&item= Cc1ccc2nnc(CNC(=O)CCl)n2c1
A) 0.0524

Q) GET /values?readout=log2 ratio of Biotin-Ahx-Ub-VS probe labelling&system=OTUD4 (UniProt Q01804)&item= CN(C)C(=O)c1ccc(NC(=O)CCl)cc1
A) -0.109

Q) GET /values?readout=log2 ratio of Biotin-Ahx-Ub-VS probe labelling&system=OTUD4 (UniProt Q01804)&item= O=C(CN1CCN(C(=O)CCl)CC1)Nc1cccc(F)c1
A) -0.422

Q) GET /values?readout=log2 ratio of Biotin-Ahx-Ub-VS probe labelling&system=OTUD4 (UniProt Q01804)&item= CCCn1nccc1NC(=O)CCl
A) 0.00925

Q) GET /values?readout=log2 ratio of Biotin-Ahx-Ub-VS probe labelling&system=OTUD4 (UniProt Q01804)&item= Cl.Cn1nccc1C(NC(=O)CCl)c1ccccc1 (stereo not drawn)
A) -0.894

Q) GET /values?readout=log2 ratio of Biotin-Ahx-Ub-VS probe labelling&system=OTUD4 (UniProt Q01804)&item= O=C(CCl)Nc1cc2c(cc1Cl)OCCCO2
A) 0.136

Q) GET /values?readout=log2 ratio of Biotin-Ahx-Ub-VS probe labelling&system=OTUD4 (UniProt Q01804)&item= O=C(CCl)NCCc1cccc2ccccc12
A) 0.0626

Q) GET /values?readout=log2 ratio of Biotin-Ahx-Ub-VS probe labelling&system=OTUD4 (UniProt Q01804)&item= CC(=O)Nc1ccc(NC(=O)CCl)cc1
A) -0.296

Q) GET /values?readout=log2 ratio of Biotin-Ahx-Ub-VS probe labelling&system=OTUD4 (UniProt Q01804)&item= CC(=O)C1CCCCN1C(=O)CCl (stereo not drawn)
A) 0.0774

Q) GET /values?readout=log2 ratio of Biotin-Ahx-Ub-VS probe labelling&system=OTUD4 (UniProt Q01804)&item= CN(C(=O)CCl)c1nc2ccccc2s1
A) -0.0109

Q) GET /values?readout=log2 ratio of Biotin-Ahx-Ub-VS probe labelling&system=OTUD4 (UniProt Q01804)&item= O=C(CCl)NC1CCC2(CC1)OCCO2
A) -0.376

Q) GET /values?readout=log2 ratio of Biotin-Ahx-Ub-VS probe labelling&system=OTUD4 (UniProt Q01804)&item= Cl.O=C(CN1CCN(C(=O)CCl)CC1)Nc1ccc(F)cc1
A) 0.146

Q) GET /values?readout=log2 ratio of Biotin-Ahx-Ub-VS probe labelling&system=OTUD4 (UniProt Q01804)&item= Cc1nc(-c2cccc(NC(=O)CCl)c2)cs1
A) -0.305
